study target: T1, chick N-cadherin expressed on transfected 3T3 cells (chick, UniProt P10288 165-912)
T1 sequence (looked up): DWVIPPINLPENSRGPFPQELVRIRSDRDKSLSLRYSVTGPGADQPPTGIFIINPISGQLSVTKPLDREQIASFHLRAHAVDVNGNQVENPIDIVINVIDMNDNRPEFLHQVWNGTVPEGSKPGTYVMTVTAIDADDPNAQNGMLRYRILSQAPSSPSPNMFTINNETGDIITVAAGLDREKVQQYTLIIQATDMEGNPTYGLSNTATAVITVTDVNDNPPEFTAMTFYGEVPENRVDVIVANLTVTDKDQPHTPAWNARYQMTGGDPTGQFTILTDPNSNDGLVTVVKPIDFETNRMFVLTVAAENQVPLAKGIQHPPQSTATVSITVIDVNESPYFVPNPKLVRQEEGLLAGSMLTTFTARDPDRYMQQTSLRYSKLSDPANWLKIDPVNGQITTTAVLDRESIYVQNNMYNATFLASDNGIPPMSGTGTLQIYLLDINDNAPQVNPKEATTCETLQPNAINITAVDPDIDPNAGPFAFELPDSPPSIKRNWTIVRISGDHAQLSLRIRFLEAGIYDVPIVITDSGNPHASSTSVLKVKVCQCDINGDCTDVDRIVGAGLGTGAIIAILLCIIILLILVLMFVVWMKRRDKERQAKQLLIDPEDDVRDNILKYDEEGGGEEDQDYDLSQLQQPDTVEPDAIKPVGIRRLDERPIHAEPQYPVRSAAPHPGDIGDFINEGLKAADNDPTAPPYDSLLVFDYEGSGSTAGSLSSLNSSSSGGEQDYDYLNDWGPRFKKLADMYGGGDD
test: cell-based or functional assay
Positions of bridges follow the written chain, without caps; N, C: chain ends.
Short version: Percent Inhibition of N-cadherin dependent neurite outgrowth (peptide 250 µg/ml) at least 20% is condition met, less is condition not met.

Inquiry: Could you tell me if the measured Percent Inhibition of N-cadherin dependent neurite outgrowth (peptide 250 µg/ml) of Ac-CHAVCE-NH2 (disulfide 1-5 (inferred)) [N-Ac-CHAVC-E-NH2] reaches 20% or more?
Reply text: condition met

Inquiry: Could you tell me if the measured Percent Inhibition of N-cadherin dependent neurite outgrowth (peptide 250 µg/ml) of Ac-CHAVCSS-NH2 (disulfide 1-5 (inferred)) [N-Ac-CHAVC-SS-NH2] reaches 20% or more?
Reply text: condition met

Inquiry: Could you tell me if the measured Percent Inhibition of N-cadherin dependent neurite outgrowth (peptide 250 µg/ml) of Ac-CHAVCD-NH2 (disulfide 1-5 (inferred)) [N-Ac-CHAVC-D-NH2] reaches 20% or more?
Reply text: condition not met

Inquiry: Could you tell me if the measured Percent Inhibition of N-cadherin dependent neurite outgrowth (peptide 250 µg/ml) of Ac-CHAVCS-NH2 (disulfide 1-5 (inferred)) [N-Ac-CHAVC-S-NH2] reaches 20% or more?
Reply text: condition not met

Inquiry: Could you tell me if the measured Percent Inhibition of N-cadherin dependent neurite outgrowth (peptide 250 µg/ml) of Ac-SCHAVCS-NH2 (disulfide 2-6; SMILES CC(=O)N[C@@H](CO)C(=O)N[C@H]1CSSC[C@@H](C(=O)N[C@@H](CO)C(N)=O)NC(=O)[C@H](C(C)C)NC(=O)[C@H](C)NC(=O)[C@H](Cc2c[nH]cn2)NC1=O) [N-Ac-S-CHAVC-S-NH2] reaches 20% or more?
Reply text: condition not met

Inquiry: Could you tell me if the measured Percent Inhibition of N-cadherin dependent neurite outgrowth (peptide 250 µg/ml) of Ac-YCHAVC-NH2 (disulfide 2-6; SMILES CC(=O)N[C@@H](Cc1ccc(O)cc1)C(=O)N[C@H]1CSSC[C@@H](C(N)=O)NC(=O)[C@H](C(C)C)NC(=O)[C@H](C)NC(=O)[C@H](Cc2c[nH]cn2)NC1=O) [N-Ac-YCHAVC-NH2] reaches 20% or more?
Reply text: condition not met

Inquiry: Could you tell me if the measured Percent Inhibition of N-cadherin dependent neurite outgrowth (peptide 250 µg/ml) of Ac-CHAVCT-NH2 (disulfide 1-5 (inferred)) [N-Ac-CHAVC-T-NH2] reaches 20% or more?
Reply text: condition met
